Test system: recombinant retrovirus of murine origin (MoMLV)
Assay: Residual virus (clones of βgal+ cells) after infection of mouse 3T3 test cells with LacZ recombinant MoMLV retrovirus
Format: cell-based
Conditions: NIH3T3; 10^-6 M; 48 hours after infection; 3T3 cells; mean of several experiments; read-out: % of the residual virus (not inhibited by the product)
Property label: residual virus (% not inhibited) at 1 µM (%)
Numbers only; they are read as %.

(Q) What measured residual virus (% not inhibited) at 1 µM is associated with Cc1cn([C@H]2C[C@H](N=[N+]=[N-])[C@@H](COP(=O)(O)OC[C@H]3OC(O)[C@H](O)[C@@H](O)[C@@H]3O)O2)c(=O)[nH]c1=O (stereo partly drawn) [compound 6715] on recombinant retrovirus of murine origin (MoMLV)?
(A) 3

(Q) GET /values?readout=residual virus (% not inhibited) at 1 µM&system=recombinant retrovirus of murine origin (MoMLV)&item= Cc1cn([C@H]2CC[C@@H](COP(=O)(O)OC[C@H]3OC(O)[C@H](O)[C@@H](O)[C@@H]3O)O2)c(=O)[nH]c1=O (stereo partly drawn) [compound 6714]
(A) 12

(Q) Please tell me: residual virus (% not inhibited) at 1 µM of CCCCCCCCCCCCCCCCOP(=O)(OC[C@H]1OC(O)[C@H](O)[C@@H](O)[C@@H]1O)OC[C@H]1O[C@@H](n2cc(C)c(=O)[nH]c2=O)C[C@@H]1N=[N+]=[N-] (stereo partly drawn) [compound 6651] , system recombinant retrovirus of murine origin (MoMLV)?
(A) 94

(Q) Give residual virus (% not inhibited) at 1 µM (recombinant retrovirus of murine origin (MoMLV)) of the following compound: Cc1cn([C@H]2C[C@H](N=[N+]=[N-])[C@@H](CO)O2)c(=O)[nH]c1=O [AZT, 3'-azido 3'-deoxythymidine, reference compound]
(A) 0

(Q) Param readout= residual virus (% not inhibited) at 1 µM; system= recombinant retrovirus of murine origin (MoMLV); entry= Cc1cn([C@H]2CC[C@@H](CO)O2)c(=O)[nH]c1=O [ddT, 3'-deoxy-thymidine, reference compound] ; returns value.
(A) 87

(Q) # value lookup — system recombinant retrovirus of murine origin (MoMLV), readout residual virus (% not inhibited) at 1 µM, item CCCCCCCCCCCCCCCCOP(=O)(OCC1CCC(n2cc(C)c(=O)[nH]c2=O)O1)OCC1OC(O)C(O)C(O)C1O (stereo not drawn) [compound 6650]
(A) 78
